Assign IC50 to each entry below.
# ASSAYED SYSTEM: human IGF1R (hIGF1R) (Homo sapiens, UniProt P08069)
# Construct: containing amino acid residues 957-1367 of human IGF1R; made in house; host or cells: Sf9 cells (baculovirus)
# Sequence (P08069 957-1367): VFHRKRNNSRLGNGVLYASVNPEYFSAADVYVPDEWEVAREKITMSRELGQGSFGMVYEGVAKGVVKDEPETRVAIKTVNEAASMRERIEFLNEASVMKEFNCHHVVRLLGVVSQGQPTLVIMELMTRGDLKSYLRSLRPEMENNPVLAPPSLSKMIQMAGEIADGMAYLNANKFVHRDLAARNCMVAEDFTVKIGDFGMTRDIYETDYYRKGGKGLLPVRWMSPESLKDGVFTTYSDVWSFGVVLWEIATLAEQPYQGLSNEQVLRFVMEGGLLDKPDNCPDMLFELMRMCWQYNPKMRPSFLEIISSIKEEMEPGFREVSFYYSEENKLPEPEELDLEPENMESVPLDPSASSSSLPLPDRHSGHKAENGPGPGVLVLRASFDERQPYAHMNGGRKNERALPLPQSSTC
# ASSAY COMMENT: TR-FRET kinase assay of purified hIGF1R
# Type: biochemical
# COND: activated hIGF1R 0.5 nM, 10 μM ATP, values given as pIC50 category, read-out: IGF-1R pIC50 (converted)

Here are 3 compounds together with their reported answers.
[[record]]
compound = "COc1cc(N2CCC[C@H](O)C2)ccc1Nc1nc(Nc2cc(F)ccc2C(N)=O)c2cc[nH]c2n1"
assayed_system = "human IGF1R (hIGF1R) (Homo sapiens, UniProt P08069)"
value_observed = "0.251 to 1 nM"

[[record]]
compound = "CNC(=O)c1c(F)cccc1Nc1nc(Nc2cc(N(C)C(=O)CN(C)C)ccc2OC)nc2[nH]ccc12"
assayed_system = "human IGF1R (hIGF1R) (Homo sapiens, UniProt P08069)"
value_observed = "5.01 to 200 nM"

[[record]]
compound = "COc1cc2c(cc1Nc1nc(Nc3cccc(F)c3C(=O)NCC(C)C)c3cc[nH]c3n1)N(C(=O)CN(C)C)CC2"
assayed_system = "human IGF1R (hIGF1R) (Homo sapiens, UniProt P08069)"
value_observed = "1.26 to 3.98 nM"


# batch size: 5; output IC50 per entry
1. COc1ccc(NC(=O)CN(C)C)cc1Nc1nc(Nc2cccc(F)c2C(N)=O)c2cc[nH]c2n1
2. CNC(=O)c1c(F)cccc1Nc1nc(Nc2cc3c(cc2OC)CCN3C(=O)C(C)(C)O)nc2[nH]ccc12
3. COc1cc2c(cc1Nc1nc(Nc3cccc(F)c3C(N)=O)c3cc[nH]c3n1)N(C(=O)CCN(C)C)CC2
4. CNC(=O)c1c(F)cccc1Nc1nc(Nc2cc3c(cc2OC)CCN3C(=O)[C@@H](C)N(C)C)nc2[nH]ccc12
5. COc1cc(N2CCC(N3CCOCC3)CC2)ccc1Nc1nc(Nc2ccc(F)cc2C(N)=O)c2cc[nH]c2n1

1: 0.251 to 1 nM; 2: 5.01 to 200 nM; 3: 5.01 to 200 nM; 4: 1.26 to 3.98 nM; 5: 1.26 to 3.98 nM

# batch size: 7; output IC50 per entry
1. COc1cc(N2CCC(N3CCCCC3)CC2)ccc1Nc1nc(Nc2cccc(F)c2C(N)=O)c2cc[nH]c2n1
2. COc1cc2c(cc1Nc1nc(Nc3cc(F)cc(F)c3C(N)=O)c3cc[nH]c3n1)N(C(=O)CN(C)C)CC2
3. CCCNC(=O)c1c(F)cc(F)cc1Nc1nc(Nc2cc3c(cc2OC)CCN3C(=O)CN(C)C)nc2[nH]ccc12
4. COc1cc(N2CCOC[C@@H]2C)ccc1Nc1nc(Nc2cc(F)ccc2C(N)=O)c2cc[nH]c2n1
5. COc1cc2c(cc1Nc1nc(Nc3cc(F)cc(F)c3C(=O)NC(C)C)c3cc[nH]c3n1)N(C(=O)CN(C)C)CC2
6. CCC(C)N1CCc2cc(OC)c(Nc3nc(Nc4cccc(F)c4C(N)=O)c4cc[nH]c4n3)cc2C1 (stereo not drawn)
7. COc1cc2c(cc1Nc1nc(Nc3cc(F)cc(F)c3C(N)=O)c3cc[nH]c3n1)N(C(=O)CN1CCCC1)CCC2

["1.26 to 3.98 nM", "0.251 to 1 nM", "0.251 to 1 nM", "0.251 to 1 nM", "1.26 to 3.98 nM", "1.26 to 3.98 nM", "0.251 to 1 nM"]

* * *

# ASSAYED SYSTEM: NIH-3T3 cells overexpressing human IGF-1R (Homo sapiens)
# Sequence (P08069 31-1367): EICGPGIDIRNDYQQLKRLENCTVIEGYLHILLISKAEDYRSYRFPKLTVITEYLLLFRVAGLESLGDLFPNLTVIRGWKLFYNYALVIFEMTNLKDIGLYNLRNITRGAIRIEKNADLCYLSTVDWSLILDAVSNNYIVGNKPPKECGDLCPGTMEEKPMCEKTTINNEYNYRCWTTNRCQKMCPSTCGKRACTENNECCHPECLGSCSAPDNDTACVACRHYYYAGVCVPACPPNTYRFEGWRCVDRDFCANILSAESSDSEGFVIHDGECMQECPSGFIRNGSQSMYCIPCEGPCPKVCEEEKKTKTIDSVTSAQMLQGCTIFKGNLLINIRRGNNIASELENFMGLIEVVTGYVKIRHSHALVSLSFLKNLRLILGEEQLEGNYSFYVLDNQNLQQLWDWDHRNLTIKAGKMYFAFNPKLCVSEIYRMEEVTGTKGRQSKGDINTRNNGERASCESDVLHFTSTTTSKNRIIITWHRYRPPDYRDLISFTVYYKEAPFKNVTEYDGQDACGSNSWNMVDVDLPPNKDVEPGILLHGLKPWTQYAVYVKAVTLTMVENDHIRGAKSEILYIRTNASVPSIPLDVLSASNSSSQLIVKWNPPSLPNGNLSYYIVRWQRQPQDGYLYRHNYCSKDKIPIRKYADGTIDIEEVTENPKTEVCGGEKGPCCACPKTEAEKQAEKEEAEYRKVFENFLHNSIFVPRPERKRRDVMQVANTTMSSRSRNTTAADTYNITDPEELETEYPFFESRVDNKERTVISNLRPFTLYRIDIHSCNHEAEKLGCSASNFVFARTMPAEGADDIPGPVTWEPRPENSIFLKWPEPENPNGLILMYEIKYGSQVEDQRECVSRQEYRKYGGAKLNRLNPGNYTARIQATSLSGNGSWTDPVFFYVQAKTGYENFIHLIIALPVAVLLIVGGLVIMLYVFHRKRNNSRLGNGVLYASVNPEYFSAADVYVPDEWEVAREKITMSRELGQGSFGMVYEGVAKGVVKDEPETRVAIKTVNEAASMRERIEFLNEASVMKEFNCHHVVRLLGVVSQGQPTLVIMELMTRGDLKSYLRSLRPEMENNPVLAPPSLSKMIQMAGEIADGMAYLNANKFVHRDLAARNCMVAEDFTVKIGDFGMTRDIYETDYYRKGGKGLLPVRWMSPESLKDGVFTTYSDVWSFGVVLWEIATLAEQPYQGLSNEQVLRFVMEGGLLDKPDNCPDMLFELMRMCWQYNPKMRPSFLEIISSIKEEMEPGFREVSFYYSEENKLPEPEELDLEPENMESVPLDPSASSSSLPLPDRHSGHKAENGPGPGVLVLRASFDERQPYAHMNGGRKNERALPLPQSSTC
# ASSAY COMMENT: IGF-1R cellular autophosphorylation (DELFIA)
pIC50: −log10 of the molar value.
EXPERIMENTAL READOUT: pIC50

Here are 5 compounds together with their reported answers.
[[record]]
compound = "COc1cc2c(cc1Nc1nc(Nc3cc(F)cc(F)c3C(=O)NCC(C)C)c3cc[nH]c3n1)N(C(=O)CN(C)C)CC2"
value_observed = "6.30 to 7.00"

[[record]]
compound = "CCCN1CCC(c2ccc(Nc3nc(Nc4cc(F)c(F)cc4C(N)=O)c4cc[nH]c4n3)c(OC)c2)CC1"
value_observed = "> 7.00"

[[record]]
compound = "COc1cc(C2CCCN(C)C2)ccc1Nc1nc(Nc2ccccc2C(N)=O)c2cc[nH]c2n1 (stereo not drawn)"
value_observed = "> 7.00"

[[record]]
compound = "COc1cc2c(cc1Nc1nc(Nc3ccc(F)c(F)c3C(N)=O)c3cc[nH]c3n1)N(C(=O)CN(C)C)CCC2"
value_observed = "> 7.00"

[[record]]
compound = "CCCN1CCC=C(c2ccc(OC)c(Nc3nc(Nc4ccc(F)cc4C(N)=O)c4cc[nH]c4n3)c2)C1"
value_observed = "> 7.00"


# batch size: 3; output pIC50 per entry
1. COc1cc2c(cc1Nc1nc(Nc3cccc(F)c3C(N)=O)c3cc[nH]c3n1)N(C(=O)CN(C)C)[C@H](C)C2
2. CNC(=O)c1c(F)cccc1Nc1nc(Nc2cc3c(cc2OC)CCCN3C(=O)CN(C)C)nc2[nH]ccc12
3. CCCN1CCC=C(c2ccc(Nc3nc(Nc4ccc(F)cc4C(N)=O)c4cc[nH]c4n3)c(OC)c2)C1

["6.30 to 7.00", "6.30 to 7.00", "6.30 to 7.00"]

* * *

# ASSAYED SYSTEM: human IR (hIR) (Homo sapiens, UniProt P06213)
# Construct: containing amino acid residues 979-1382 of human IR
# Sequence (P06213 979-1382): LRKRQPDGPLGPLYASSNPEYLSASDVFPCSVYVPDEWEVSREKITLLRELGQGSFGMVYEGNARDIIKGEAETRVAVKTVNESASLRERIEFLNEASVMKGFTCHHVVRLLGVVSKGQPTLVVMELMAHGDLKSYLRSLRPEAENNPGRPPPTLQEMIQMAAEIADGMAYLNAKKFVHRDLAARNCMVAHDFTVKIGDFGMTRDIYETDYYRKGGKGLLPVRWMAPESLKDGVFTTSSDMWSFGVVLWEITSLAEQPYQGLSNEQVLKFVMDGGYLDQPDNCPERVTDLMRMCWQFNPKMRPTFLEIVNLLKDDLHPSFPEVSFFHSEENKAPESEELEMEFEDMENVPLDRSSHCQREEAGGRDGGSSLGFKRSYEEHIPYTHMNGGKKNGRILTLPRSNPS
# ASSAY COMMENT: TR-FRET kinase assay of purified hIR
# COND: activated hIR 0.5 nM, 10 μM ATP, values given as pIC50 category
EXPERIMENTAL READOUT: IC50

Here are 5 molecules together with their reported answers.
[[record]]
molecule = "CNC(=O)c1c(F)cccc1Nc1nc(Nc2cc3c(cc2OC)CCN(CCF)C3)nc2[nH]ccc12"
experimental_readout = "IC50"
value_observed = "1.26 to 3.98 nM"

[[record]]
molecule = "CCCN1CCCC(c2ccc(Nc3nc(Nc4ccccc4C(N)=O)c4cc[nH]c4n3)c(OC)c2)C1 (centres unmarked)"
experimental_readout = "IC50"
value_observed = "0.251 to 1 nM"

[[record]]
molecule = "COc1cc2c(cc1Nc1nc(Nc3cccc(F)c3C(N)=O)c3cc[nH]c3n1)N(C(=O)Cn1ccnc1)CC2"
experimental_readout = "IC50"
value_observed = "5.01 to 158 nM"

[[record]]
molecule = "CNC(=O)c1c(F)cccc1Nc1nc(Nc2cc3c(cc2OC)C(C)(C)CCN3C(=O)CN(C)C)nc2[nH]ccc12"
experimental_readout = "IC50"
value_observed = "0.251 to 1 nM"

[[record]]
molecule = "COc1cc2c(cc1Nc1nc(Nc3cccc(F)c3C(N)=O)c3cc[nH]c3n1)NCCC2"
experimental_readout = "IC50"
value_observed = "5.01 to 158 nM"


# batch size: 2; output IC50 per entry
1. CNC(=O)c1c(F)cc(Cl)cc1Nc1nc(Nc2cc3c(cc2OC)CCN3C(=O)CN(C)C)nc2[nH]ccc12
2. COc1cc2c(cc1Nc1nc(Nc3cccc(F)c3C(N)=O)c3cc[nH]c3n1)CN(C(=O)CN(C)C)CC2

1. 0.251 to 1 nM
2. 1.26 to 3.98 nM

# batch size: 5; output IC50 per entry
1. CCCN1CCC=C(c2ccc(Nc3nc(Nc4cc(C)ccc4C(N)=O)c4cc[nH]c4n3)c(C)c2)C1
2. CNC(=O)c1c(F)cccc1Nc1nc(Nc2cc3c(cc2OC)C[C@@H](C)N3C(=O)CN(C)C)nc2[nH]ccc12
3. COc1cc2c(cc1Nc1nc(Nc3cccc(F)c3C(N)=O)c3cc[nH]c3n1)N(C(=O)CCN1CCN(C(C)C)CC1)CC2
4. CNC(=O)c1c(F)cc(F)cc1Nc1nc(Nc2cc3c(cc2OC)CCCN3C(=O)CN2CCCC2)nc2[nH]ccc12
5. COc1cc2c(cc1Nc1nc(Nc3cccc(F)c3C(N)=O)c3c(C)c[nH]c3n1)N(C(=O)CN(C)C)CCC2

1. 5.01 to 158 nM
2. 5.01 to 158 nM
3. 5.01 to 158 nM
4. 0.251 to 1 nM
5. 0.251 to 1 nM

# batch size: 2; output IC50 per entry
1. CCNC(=O)c1c(F)cc(F)cc1Nc1nc(Nc2cc3c(cc2OC)CCN3C(=O)CN(C)C)nc2[nH]ccc12
2. CNC(=O)c1c(Nc2nc(Nc3cc4c(cc3OC)CCCN4C(=O)CN(C)C)nc3[nH]ccc23)ccc(F)c1F

1: 0.251 to 1 nM; 2: 1.26 to 3.98 nM

# batch size: 2; output IC50 per entry
1. COc1cc2c(cc1Nc1nc(Nc3cccc(F)c3C(N)=O)c3cc[nH]c3n1)N(C(=O)CCN(C)C)CC2
2. COc1cc(N2CCN(C(C)C)CC2)ccc1Nc1nc(Nc2cc(Cl)cc(F)c2C(N)=O)c2cc[nH]c2n1

5.01 to 158 nM
1.26 to 3.98 nM

Recorded values, source patent US7981903B2.
